- subject-of-test: human Claudin 18.2 (hCLDN18.2) (human, UniProt P56856-2 1-261)
- experiment-description: cell-based or functional assay
attribute-measured: CDC Maximum lysis (%)
Express your answer in %, writing the number without its unit.

Examples with their reported CDC Maximum lysis (%) follow.
ch-59F9 (antibody, V domains shown, also called chimeric antibody of clone 59F9) VH: QVQLQQSGAELMKPGASVKLPCKASGYTLTGYWIEWLKQRPRHGLEWIGEILLGSGSIKYNVKFKDKATFTADTSSNTAYMQLNSLTTEDSAIYYCARKGLRGNSFDYWGQGTTLTVSS VL: DIVMTQSPSSLTVTAGEKVTMSCKSSQSLLNSGNQKSYLTWYQQKPGQPPKRLIYWASTRESGVPDRFTGSGSGTDFTLTISSVQAEDLAVYYCQNDYYYPFTFGSGTKLEIK    94.7
ch-42D2 (antibody, V domains shown, also called chimeric antibody of clone 42D2) VH: EVQLQQSGPVLVKPGASVKMSCKASGYTFTDYQMNWVKQSHGKSLEWIGFINPYNGGIRYNQKFKGKATLTVDKSSSTAYMELNSLTSEDSAVYYCATIYFGNSFANWGQGTLVTVSA VL: DIVMTQSPSSLTVTAGEKVTMSCKPSQSLLNSGNQKNYLTWYQQKPGQPPRLLIYWASTRESGVPDRFTGSGSGTDFTLTISSVQAEDLAVYYCQNDYIYPYTFGGGTNLEIK    94.5
ch-241F7 (antibody, V domains shown, also called chimeric antibody of clone 241F7) VH: EVQLQQSGPELEKPGASVKISCKASGYSFTAYNMNWVRQRNGKSLEWIGNIDPYYGGTNYNQKFKGKATLTVDKSSSTAYMQLKSLTSEDSAVYFCATVYYGNSLIYWGQGTLVTVSA VL: DIVMTQSPSSLTVTAGEKVTMSCKSSQSLLNSGNQKNYLTWYQQKPGQPPKLLIYWASTRESGVPDRFTGTGSGTDFTLTISSVQAEDLAVYYCQNNYFYPLTFGAGTQLELK    95

Input: Data request, read-out CDC Maximum lysis (%), for ch-253C4 (antibody, V domains shown, also called chimeric antibody of clone 253C4) VH: QVQLKQSGAELVRPGASVSLSCKTSGYIFTSYWIHWVKQRSGQGLEWIGRFYPGTGTAYYNENFEGKATLTADRSSSTAYMQLSSLKSDDSAVYFCTREGYGKGNAMDYWGQGTSVTVSS VL: DIVMTQSPSSLTVTTGEKVTLSCKSSQSLLNSGNQKNYLTWYQQKSGQPPELLIYWASTRESGVPDRFTGSGSGTDFTLTVSSVQAEDLAVYYCQNDYYFPFTFGGGTKLEIK
Output: 95.2

Input: Same read-out for ch-43F5 (antibody, V domains shown, also called chimeric antibody of clone 43F5) VH: QVQLQQPGAELVKPGTSVKLSCKASGYTFTSYWTHWVKQRPGQGLEWIGMIHPNSGSSNYNEKFKSKATLTVDKSSSTAYMQLRRLTSEDSAVYYCTRIHYGNAMDYWGQGTSVTVSS VL: DIVMTQSPSSLTVTAGEKVTMTCKSSQSLLNSGNQKNYLTWYQQKPGQPPKLLIYWASTRESGVPDRFTGSGSGTDFTLTISSVQAEDLAIYYCQNDYSFPFTFGSGTKLEIK ?
Output: 89.8

Input: Same read-out for ch-299B2 (antibody, V domains shown, also called chimeric antibody of clone 299B2) VH: QVQLKQSGPELVRPGASVKLSCKTSGYIFTNYWIHWVKQRSGQGLEWVVRIYPGTGNTYYNEKFTGKATLTADKSSSTAYMQLSSLKYEDSAVYFCSREGYGKGNSMDYWGQGTSVTVSS VL: DIVMTQSPSSLTVTAGEKVTMNCKSSQSLLNSGNQKNYLTWYQQKPGQPPKLLFYWASTRESGVPDRFTGSGSGTDFTLTISSVQAEDLAVYHCQNAYYYPYTFGGGTKLEMK ?
Output: 95.5

Input: Same read-out for ch-32G8 (antibody, V domains shown, also called chimeric antibody of clone 32G8) VH: EVHLQQSGPVLVKPGASVKMSCKASGYTFTDYHMNWVKQSHGKSLEWIGVINPYNGGIRYNQKFKGKATLTVDKSSSTAYMELNSLTSEDSAVYYCATIYYGNSFAYWGQGTLVTVSA VL: DIVMTQSPSSLTVTAGEKVTMSCKSSQSLLNSGNQKNYLTWYQQKPGQPPKLLIYWASTRESGVPDRFTGSGSGTDFTLTISSVQAEDLAVYYCQNNYIYPFTFGGGTKLEIR ?
Output: 93.8

Input: Same read-out for ch-39C8 (antibody, V domains shown, also called chimeric antibody of clone 39C8) VH: QVQLQQSGAGLVKPGASVKISCKASGYAFSSYWMIWVKQRPGKGLEWIGQIYPGDGDTNYNGKFKGKATLTADKSSSTAFMQLSSLTSEDSAVYFCTRIYYGNAFAYWGQGTLVTVSA VL: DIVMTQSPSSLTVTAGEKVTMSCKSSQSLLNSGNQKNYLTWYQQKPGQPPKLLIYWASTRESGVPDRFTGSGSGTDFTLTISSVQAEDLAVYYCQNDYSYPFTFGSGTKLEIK ?
Output: 94.8
